Values were extracted from patent US20180092866A1.

- Assay system: β-catenin L156S/L178S mutant (residues 138-686) (Homo sapiens, UniProt P35222, L156S/L178S)
- Construct: His6 (C)
- Procedure text: Isothermal titration calorimetry, β-catenin L156S/L178S
- Cond: ITC
Measured parameter: Kd

query_smiles=O=C(Nc1ccc(O[C@H]2CCNC2)c(-c2ccc(F)cc2)c1)c1ccc(O[C@H]2CCNC2)c(-c2ccc(F)c(F)c2)c1 measured_parameter=Kd measured="1590 nM"

###

- Assay system: β-catenin/BCL9 protein-protein interactions (Homo sapiens, UniProt P35222)
- Construct: C-terminally His6-tagged wild-type or mutant β-catenin (residues 138-686) proteins
- Procedure text: AlphaScreen competitive inhibition assay, wild-type β-catenin/BCL9
- Cond: wild-type β-catenin (residues 138-686)/biotinylated BCL9 26-mer; Ki derived from IC50; mean ± SD
Where a name gives a salt, the structure may show the parent alone.
Using Ki as the sorting value, the categories are bottom: < 30 µM; middle: ≥ 30 µM and < 70 µM; top: ≥ 70 µM

molecule="Cc1ccccc1-c1cc(NC(=O)c2ccc(O[C@H]3CCNC3)c(-c3ccc(F)c(F)c3)c2)ccc1O[C@H]1CCNC1 [Compound 91a, dihydrochloride]" assigned_category=middle
molecule="O=C(Nc1ccc(O[C@H]2CCNC2)c(-c2ccccc2C(F)(F)F)c1)c1ccc(O[C@H]2CCNC2)c(-c2ccc(F)c(F)c2)c1 [Compound 91d, dihydrochloride]" assigned_category=middle
molecule=Cc1cc(C(=O)Nc2ccc(O[C@H]3CCNC3)c(-c3ccc(F)cc3)c2)ccc1O[C@H]1CCNC1 assigned_category=top
molecule="Cc1ccc(-c2cc(NC(=O)c3ccc(O[C@H]4CCNC4)c(-c4ccc(F)c(F)c4)c3)ccc2O[C@H]2CCNC2)cc1 [Compound 91c, dihydrochloride]" assigned_category=middle
molecule=O=C(Nc1ccc(O[C@H]2CCNC2)c(-c2ccc(F)cc2)c1)c1ccc(O[C@@H]2CCNC2)c(-c2ccc(F)c(F)c2)c1 assigned_category=bottom
molecule="O=C(Nc1ccc(O[C@H]2CCNC2)c(-c2ccc(F)nc2)c1)c1ccc(O[C@H]2CCNC2)c(-c2ccc(F)c(F)c2)c1 [Compound 91m, dihydrochloride]" assigned_category=top
molecule="O=C(Nc1cnc(O[C@H]2CCNC2)c(-c2ccc(F)cc2)c1)c1ccc(O[C@H]2CCNC2)c(-c2ccc(F)c(F)c2)c1 [Compound 84a, dihydrochloride]" assigned_category=top
molecule="O=C(Nc1ccc(O[C@H]2CCNC2)c(-c2ccc(F)cc2)c1)c1cnc(O[C@H]2CCNC2)c(-c2ccc(F)c(F)c2)c1 [Compound 84b, dihydrochloride]" assigned_category=top
molecule="Cc1cccc(-c2cc(NC(=O)c3ccc(O[C@H]4CCNC4)c(-c4ccc(F)c(F)c4)c3)ccc2O[C@H]2CCNC2)c1 [Compound 91b, dihydrochloride]" assigned_category=middle
molecule=CC(=O)Nc1cccc(-c2cc(NC(=O)c3ccc(O[C@H]4CCNC4)c(-c4ccc(F)c(F)c4)c3)ccc2O[C@H]2CCNC2)c1 assigned_category=top
molecule=NCCOc1ccc(C(=O)Nc2cccc(-c3ccc(Cl)cc3F)c2)cc1-c1ccc(F)cc1 assigned_category=top
molecule=NCCOc1ccc(C(=O)Nc2cccc(-c3ccc(F)cc3)c2)cc1-c1ccc(Cl)c(F)c1 assigned_category=top
molecule=Cl.NCCOc1ccc(C(=O)Nc2cccc(-c3ccc(F)cc3)c2)cc1-c1ccc(F)cc1 assigned_category=middle
molecule=CS(=O)(=O)Nc1cccc(C#Cc2cc(NC(=O)c3ccc(O[C@H]4CCNC4)c(-c4ccc(F)c(F)c4)c3)ccc2O[C@H]2CCNC2)c1 assigned_category=middle
molecule=NCCOc1ccc(C(=O)Nc2cccc(-c3ccc(F)cc3)c2)cc1-c1ccsc1 assigned_category=middle
molecule=NCCOc1ccc(C(=O)Nc2cccc(-c3ccc(F)c(F)c3)c2)cc1-c1ccc(F)cc1 assigned_category=bottom
molecule=O=C(O)c1cccc(-c2cc(NC(=O)c3ccc(O[C@H]4CCNC4)c(-c4ccc(F)c(F)c4)c3)ccc2O[C@H]2CCNC2)c1 assigned_category=top
molecule="Cc1cc(F)ccc1-c1cc(NC(=O)c2ccc(O[C@H]3CCNC3)c(-c3ccc(F)c(F)c3)c2)ccc1O[C@H]1CCNC1 [Compound 91j, dihydrochloride]" assigned_category=bottom
molecule=O=C(Nc1ccc(OC2CNC2)c(-c2ccc(F)cc2)c1)c1ccc(OC2CNC2)c(-c2ccc(F)c(F)c2)c1 assigned_category=bottom
molecule="N#Cc1cccc(-c2cc(NC(=O)c3ccc(O[C@H]4CCNC4)c(-c4ccc(F)c(F)c4)c3)ccc2O[C@H]2CCNC2)c1 [Compound 91e, dihydrochloride]" assigned_category=bottom
molecule=COC(=O)c1ccc(OCCNC(=O)OC(C)(C)C)c(-c2ccc(F)cc2)c1 assigned_category=top
molecule=O=C(Nc1ccc(O[C@H]2CCNC2)c(-c2ccc(F)cc2)c1)c1ccc(O[C@H]2CCNC2)c(-c2ccc3ccccc3c2)c1 assigned_category=bottom

###

- Assay system: β-catenin/BCL9 protein-protein interactions (Homo sapiens, UniProt P35222)
- Construct: C-terminally His6-tagged wild-type or mutant β-catenin (residues 138-686) proteins; made in house; host or cells: E. coli BL21 DE3
- Procedure text: AlphaScreen competitive inhibition assay, wild-type β-catenin/BCL9
- Assay type: binding
- Cond: AlphaScreen assay, comparison with named compound
Measured parameter: relative inhibitory potency for β-catenin/BCL9 PPIs (in words)

query_smiles=NC(=O)c1ccc(CCCO)c(-c2ccc(F)cc2)c1 measured="less potent than 6"
query_smiles=Cl.NCc1ccc(C(N)=O)cc1-c1ccc(F)cc1 measured="less potent than 6"
query_smiles=Cl.NCCOc1ccc(C(=O)Nc2cccc(-c3ccc(F)cc3)c2)cc1-c1ccc(F)cc1 measured="higher potency than 14"
query_smiles=Cl.NCCOc1ccc(C(=O)Nc2cccc(-c3ccc(F)cc3)c2)cc1-c1ccc(F)c(F)c1 measured="higher potency than 14"

###

- Assay system: β-catenin L159S mutant (residues 138-686) (Homo sapiens, UniProt P35222, L159S)
- Construct: His6 (C)
- Procedure text: Isothermal titration calorimetry, β-catenin L159S
- Cond: ITC
pKd: −log10 of the molar value.
Measured parameter: pKd

compound="O=C(Nc1ccc(O[C@H]2CCNC2)c(-c2ccc(F)cc2)c1)c1ccc(O[C@H]2CCNC2)c(-c2ccc(F)c(F)c2)c1 [Compound 21]" assay_system="β-catenin L159S mutant (residues 138-686) (Homo sapiens, UniProt P35222, L159S)" measured_parameter=pKd measured=6.03

###

Entries annotated with measured Ki
- Assay system: β-catenin/BCL9 protein-protein interactions (Homo sapiens, UniProt P35222)
- Construct: C-terminally His6-tagged wild-type or mutant β-catenin (residues 138-686) proteins
- Procedure text: AlphaScreen competitive inhibition assay, wild-type β-catenin/BCL9
- Cond: wild-type β-catenin (residues 138-686)/biotinylated BCL9 26-mer; Ki derived from IC50; mean ± SD
Where a name gives a salt, the structure may show the parent alone.
Measured parameter: Ki (µM)

molecule=COC(=O)c1ccc(OCCNC(=O)OC(C)(C)C)c(Br)c1 unit_name=µM measured=156
molecule=O=C(Nc1ccc(O[C@H]2CCNC2)c(-c2ccc(F)cc2)c1)c1ccc(O[C@H]2CCNC2)c(-c2ccc3ccsc3c2)c1 unit_name=µM measured=9.5
molecule="O=C(Nc1ccc(O[C@H]2CCNC2)c(-c2ccc(-c3nn[nH]n3)cc2)c1)c1ccc(O[C@H]2CCNC2)c(-c2ccc(F)c(F)c2)c1 [Compound 91l, dihydrochloride]" unit_name=µM measured=19.9
molecule=O=C(Nc1ccc(OCCO)c(-c2ccc(F)cc2)c1)c1ccc(OCCO)c(-c2ccc(F)c(F)c2)c1 unit_name=µM measured=36.8

###

- Assay system: wild-type human β-catenin (residues 138-686) (Homo sapiens, UniProt P35222)
- Sequence (P35222 138-686): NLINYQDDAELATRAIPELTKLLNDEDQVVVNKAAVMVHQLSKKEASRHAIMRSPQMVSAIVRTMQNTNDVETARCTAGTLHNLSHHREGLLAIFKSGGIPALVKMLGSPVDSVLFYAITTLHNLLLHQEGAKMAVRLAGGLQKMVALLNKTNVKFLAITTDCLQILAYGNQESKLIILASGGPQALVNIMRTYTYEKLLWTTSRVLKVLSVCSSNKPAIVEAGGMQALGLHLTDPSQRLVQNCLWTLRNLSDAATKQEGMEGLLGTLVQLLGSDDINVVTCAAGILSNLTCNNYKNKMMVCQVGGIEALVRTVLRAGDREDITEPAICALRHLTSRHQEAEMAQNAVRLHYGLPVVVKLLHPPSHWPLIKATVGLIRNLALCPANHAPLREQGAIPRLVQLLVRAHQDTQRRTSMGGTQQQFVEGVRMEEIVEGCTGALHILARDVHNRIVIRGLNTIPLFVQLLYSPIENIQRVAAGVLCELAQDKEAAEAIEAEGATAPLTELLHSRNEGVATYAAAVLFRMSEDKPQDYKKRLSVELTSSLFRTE
pKd: −log10 of the molar value.
Measured parameter: pKd

compound="O=C(Nc1ccc(O[C@H]2CCNC2)c(-c2ccc(F)cc2)c1)c1ccc(O[C@H]2CCNC2)c(-c2ccc(F)c(F)c2)c1 [Compound 21]" measured_parameter=pKd measured=6.48
